Reference source for all entries: patent US8952157B2

- subject of test: GST-Bcl-2 (Homo sapiens (Human))
- assay remarks: Time Resolved-Fluorescence Resonance Energy Transfer (TR-FRET) Bcl-2 binding assay
- recorded conditions: GST-Bcl-2 1 nM, F-Bak peptide probe 100 nM, Tb-anti-GST antibody 1 nM; Ki by Wang's equation
outcome measure: Ki (nM)
Entry rule: numbers only, all in nM.

Ask: What Ki appears in the records for this compound with GST-Bcl-2 (Homo sapiens (Human))? CN(C)CCCNc1ccc(S(=O)(=O)NC(=O)c2ccc(N3CCN(CC4=C(c5ccc(Cl)cc5)CC(C)(C)CC4)CC3)cc2Oc2cccc3c2c(CN2CCN(C)CC2)cn3CN2CCN(C)CC2)cc1[N+](=O)[O-] [Example 212]
Reply: 0.375

Ask: Same thing, different compound: CC1(C)CCC(CN2CCN(c3ccc(C(=O)NS(=O)(=O)c4ccc(NC5CCN(C6CCOCC6)CC5)c([N+](=O)[O-])c4)c(-c4ccc(N)nc4)c3)CC2)=C(c2ccc(Cl)cc2)C1 [Example 255]
Reply: 7.01

Ask: Let us now turn to CC(C)(C)OC(=O)N1CCN(c2ccc(Oc3cc(N4CCN(Cc5ccccc5-c5ccc(Cl)cc5)CC4)ccc3C(=O)NS(=O)(=O)c3ccc(NCCCN4CCOCC4)c([N+](=O)[O-])c3)cc2)CC1 [Example 97]
Reply: 147

Ask: Please answer likewise for N#Cc1ccc(Oc2cc(N3CCN(Cc4ccccc4-c4ccc(Cl)cc4)CC3)ccc2C(=O)NS(=O)(=O)c2ccc(NCC3CCOCC3)c([N+](=O)[O-])c2)cc1 [Example 72]
Reply: 31.7

Ask: What about this compound? CN(C)CCCNc1ccc(S(=O)(=O)NC(=O)c2ccc(N3CCN(CC4=C(c5ccc(Cl)cc5)CC(C)(C)CC4)CC3)cc2Oc2cccc(F)c2)cc1[N+](=O)[O-] [Example 138]
Reply: 0.016

Ask: Please give the result for CC1(C)CCC(CN2CCN(c3ccc(C(=O)NS(=O)(=O)c4cnc(OCC5(F)CCOCC5)c(C#N)c4)c(Oc4cc5cc[nH]c5cc4F)c3)CC2)=C(c2ccc(Cl)cc2)C1 [Example 308] too.
Reply: 0.04

Ask: Do the same for CC1(C)CCC(CN2CCN(c3ccc(C(=O)NS(=O)(=O)c4ccc(NC5CCN(C6CCOCC6)CC5)c([N+](=O)[O-])c4)c(Oc4cc(F)cc5[nH]ccc45)c3)CC2)=C(c2ccc(Cl)cc2)C1 [Example 210] please
Reply: 0.02

* * *

- subject of test: GST-Bcl-2 (Homo sapiens (Human), UniProt P10415)
- Sequence (P10415 whole entry): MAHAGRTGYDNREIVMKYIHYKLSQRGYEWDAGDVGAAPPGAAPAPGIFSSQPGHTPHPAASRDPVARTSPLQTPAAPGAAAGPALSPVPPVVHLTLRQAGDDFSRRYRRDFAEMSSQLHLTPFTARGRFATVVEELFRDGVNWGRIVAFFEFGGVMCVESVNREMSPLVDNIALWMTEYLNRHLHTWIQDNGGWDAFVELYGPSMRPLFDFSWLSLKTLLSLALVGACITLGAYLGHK
- assay remarks: Time Resolved-Fluorescence Resonance Energy Transfer (TR-FRET) Bcl-2 binding assay
- recorded conditions: GST-Bcl-2 1 nM, F-Bak peptide probe 100 nM, Tb-anti-GST antibody 1 nM; Ki by Wang's equation
outcome measure: Ki

Ask: Requested read-out: Ki. Entry: `CC1(C)CCC(CN2CCN(c3ccc(C(=O)NS(=O)(=O)c4ccc(NCC5CCOCC5)c([N+](=O)[O-])c4)c(Oc4cc(NC(=O)OC(C)(C)C)nc(NC(=O)OC(C)(C)C)c4)c3)CC2)=C(c2ccc(Cl)cc2)C1`
Reply: 1200 nM

Ask: Similarly, `CN1CCC(CNc2ccc(S(=O)(=O)NC(=O)c3ccc(N4CCN(CC5=C(c6ccc(Cl)cc6)CC(C)(C)CC5)CC4)cc3Oc3cccc(Cl)c3)cc2[N+](=O)[O-])CC1` ?
Reply: 0.062 nM

Ask: Try the compound `CC1(C)CCC(CN2CCN(c3ccc(C(=O)NS(=O)(=O)c4ccc(NCC5CCOCC5)c([N+](=O)[O-])c4)c(Oc4ccnc(N)c4)c3)CC2)=C(c2ccc(Cl)cc2)C1`
Reply: 1.01 nM

Ask: Here is the next compound: `CC1(C)CCC(CN2CCN(c3ccc(C(=O)NS(=O)(=O)c4ccc(NC5CCN(C6COC6)CC5)c([N+](=O)[O-])c4)c(Oc4cnc(N)c(Cl)c4)c3)CC2)=C(c2ccc(Cl)cc2)C1`
Reply: 0.014 nM

Ask: // repeat for `CC1(C)CCC(CN2CCN(c3ccc(C(=O)NS(=O)(=O)c4ccc(NCC5CCC(F)(F)CC5)c([N+](=O)[O-])c4)c(Oc4cc5cc[nH]c5cc4F)c3)CC2)=C(c2ccc(Cl)cc2)C1` and report
Reply: 21.3 nM

Ask: Similarly, `CN1CCN(Nc2ccc(S(=O)(=O)NC(=O)c3ccc(N4CCN(CC5=C(c6ccc(Cl)cc6)CC(C)(C)CC5)CC4)cc3Oc3cccc4c3CC(=O)N4)cc2[N+](=O)[O-])CC1` ?
Reply: 0.131 nM

Ask: Try this compound next: `CN1CCN(Nc2ccc(S(=O)(=O)NC(=O)c3ccc(N4CCN(CC5=C(c6ccc(Cl)cc6)CC(C)(C)CC5)CC4)cc3Oc3ccc(O)cc3Cl)cc2[N+](=O)[O-])CC1`
Reply: 0.261 nM

Ask: // repeat for `CC1(C)CCC(CN2CCN(c3ccc(C(=O)NS(=O)(=O)c4ccc(NCCCN5CCNC(=O)C5)c([N+](=O)[O-])c4)c(Oc4ccccc4Cl)c3)CC2)=C(c2ccc(Cl)cc2)C1` and report
Reply: 0.119 nM

Ask: What about this compound? `CC1(C)CCC(CN2CCN(c3ccc(C(=O)NS(=O)(=O)c4ccc(NC5CCN(C6CCCC6)CC5)c([N+](=O)[O-])c4)c(Oc4cccc(F)c4F)c3)CC2)=C(c2ccc(Cl)cc2)C1`
Reply: 0.055 nM

Ask: Same question, `O=C(NS(=O)(=O)c1ccc(NCC2CCOCC2)c([N+](=O)[O-])c1)c1ccc(N2CCN(Cc3ccccc3-c3ccc(Cl)cc3)CC2)cc1Oc1cccc([N+](=O)[O-])c1` this time
Reply: 3.45 nM

Ask: What do we get for `CN1CCC(Nc2ccc(S(=O)(=O)NC(=O)c3ccc(N4CCN(CC5=C(c6ccc(Cl)cc6)CC(C)(C)CC5)CC4)cc3Oc3cccc(-c4ccc[nH]4)c3)cc2[N+](=O)[O-])CC1` ?
Reply: 0.22 nM

Ask: Follow-up item: `O=C(NS(=O)(=O)c1ccc(NCC2CCOCC2)c([N+](=O)[O-])c1)c1ccc(N2CCN(Cc3ccccc3-c3ccc(Cl)cc3)CC2)cc1Oc1cccc(Cl)c1`
Reply: 0.787 nM

Ask: Check `CC1(C)CCC(CN2CCN(c3ccc(C(=O)NS(=O)(=O)c4ccc(NC5CCN(C6CCOCC6)CC5)c([N+](=O)[O-])c4)c(Oc4ccccc4Cl)c3)CC2)=C(c2ccc(Cl)cc2)C1` too.
Reply: 0.042 nM

Ask: For `CC1(C)CCC(c2ccc(Cl)cc2)=C(CN2CCN(c3ccc(C(=O)NS(=O)(=O)c4ccc(NCC5CCOCC5)c([N+](=O)[O-])c4)c(Oc4cc5cc[nH]c5cc4F)c3)CC2)C1` then?
Reply: 0.276 nM

Ask: Can you handle `CC1(C)CCC(CN2CCN(c3ccc(C(=O)NS(=O)(=O)c4cnc(OCC5CCC(F)(F)CC5)c(Cl)c4)c(Oc4cnc(N)c(Cl)c4)c3)CC2)=C(c2ccc(Cl)cc2)C1` next?
Reply: 0.686 nM

Ask: Okay, and `CC1(C)CCC(CN2CCN(c3ccc(C(=O)NS(=O)(=O)c4ccc(NN5CCOCC5)c([N+](=O)[O-])c4)c(Oc4cccc(Cl)c4)c3)CC2)=C(c2ccc(Cl)cc2)C1` ?
Reply: 0.05 nM

Ask: Another: `CC1(C)CCC(CN2CCN(c3ccc(C(=O)NS(=O)(=O)c4ccc(NC5CCN(C6CC6)CC5)c([N+](=O)[O-])c4)c(Oc4cnc(N)c(Cl)c4)c3)CC2)=C(c2ccc(Cl)cc2)C1`
Reply: 0.062 nM

Ask: Query `CC1(C)CCC(CN2CCN(c3ccc(C(=O)NS(=O)(=O)c4ccc(NCC5CCOCC5)c([N+](=O)[O-])c4)c(Oc4ccc(NC(=O)OC(C)(C)C)nc4)c3)CC2)=C(c2ccc(Cl)cc2)C1` next
Reply: > 1200 nM

* * *

Would you mind telling me the reported pKi of each entry?
- subject of test: UniProtKB P10415
- assay remarks: Time Resolved-Fluorescence Resonance Energy Transfer (TR-FRET) Bcl-2 binding assay
pKi: −log10 of the molar value.

Ask: What does the record list as pKi for `CC1(C)CCC(CN2CCN(c3ccc(C(=O)NS(=O)(=O)c4ccc(N[C@H]5CC[C@H](N6CCN(C7CCOCC7)CC6)CC5)c([N+](=O)[O-])c4)c(Oc4cc5cc[nH]c5cc4F)c3)CC2)=C(c2ccc(Cl)cc2)C1` ?
Reply: > 11.00

Ask: Queued: `CC1(C)CCC(CN2CCN(c3ccc(C(=O)NS(=O)(=O)c4ccc(N[C@H]5CC[C@H](NC6CCOCC6)CC5)c([N+](=O)[O-])c4)c(Oc4cc5cc[nH]c5cc4F)c3)CC2)=C(c2ccc(Cl)cc2)C1`
Reply: > 11.00

Ask: Please answer likewise for `CC1(C)CCC(CN2CCN(c3ccc(C(=O)NS(=O)(=O)c4ccc(NC[C@H]5CC[C@H](O)CC5)c([N+](=O)[O-])c4)c(Oc4cc5cc[nH]c5cc4F)c3)CC2)=C(c2ccc(Cl)cc2)C1`
Reply: > 11.00
